Assay: in vitro
Settings: African green monkey, Cytotoxicity CC50, Vero E6, 72 hours; Example C (Table 4)

# compound, CC50
rows = [
    ("CCC(CC)COC(=O)[C@H](C)N[P@](=O)(OC[C@H]1O[C@@](C#N)(c2ccc3c(N)ncnn23)[C@H](O)[C@@H]1O)Oc1ccccc1 [Remdesivir]", "> 30 µM"),
]

###

Counter-ions that a name gives are not always drawn. Residues, ends and D or L forms follow the SMILES beside them. *: point of attachment. Cbz = O=C(OCc1ccccc1)*; CH2F = FC*
A549 cells Conc. at Max. % Viability data
experimental_endpoint: Conc. at Max. % Viability (nM)

# compound, quantity_unit, endpoint_result
data = [
    ("CC(C)C[C@H](NC(=O)OCc1ccccc1)C(=O)N[C@@H](CC(C)C)C(=O)N[C@@H](Cc1ccc(O)cc1)C(=O)CF [Calpain Inhibitor IV] (Cbz-Leu-Leu-Tyr-CH2F)", "nM", 90),
    ("CC(C)C(=O)OC[C@H]1O[C@@H](n2ccc(NO)nc2=O)[C@H](O)[C@@H]1O", "nM", 2),
    ("Nc1c(Br)cc(Br)cc1CN[C@H]1CC[C@H](O)CC1 [AMB, hydrochloride]", "nM", 2340),
    ("CCN(CC)CCCC(C)Nc1ccnc2cc(Cl)ccc12 (centres unmarked)", "nM", 23),
    ("CCC(CC)COC(=O)[C@H](C)N[P@](=O)(OC[C@H]1O[C@@](C#N)(c2ccc3c(N)ncnn23)[C@H](O)[C@@H]1O)Oc1ccccc1", "nM", 6),
]

###

Assay: in vitro
Settings: human, Cytotoxicity CC50, A549 cells, 72 hours
Where a name gives a salt, the structure may show the parent alone.

# compound, quantity_unit, reading_qualifier, CC50 at 72 h
measured = [
    ("CC(C)C(=O)OC[C@H]1O[C@@H](n2ccc(NO)nc2=O)[C@H](O)[C@@H]1O", "µM", ">", 10),
    ("Nc1c(Br)cc(Br)cc1CN[C@H]1CC[C@H](O)CC1 [AMB, hydrochloride]", "µM", "=", 137),
]

###

Test system: A549 cells
Structures can show the parent of a compound that is named as a salt. Residues, ends and D or L forms follow the SMILES beside them. *: point of attachment. Cbz = O=C(OCc1ccccc1)*; CH2F = FC*

# molecule, quantity_unit, Max. Viability
rows = [
    ("CCC(CC)COC(=O)[C@H](C)N[P@](=O)(OC[C@H]1O[C@@](C#N)(c2ccc3c(N)ncnn23)[C@H](O)[C@@H]1O)Oc1ccccc1", "%", 95.46),
    ("Nc1c(Br)cc(Br)cc1CN[C@H]1CC[C@H](O)CC1 [AMB, hydrochloride]", "%", 100),
    ("CC(C)C(=O)OC[C@H]1O[C@@H](n2ccc(NO)nc2=O)[C@H](O)[C@@H]1O", "%", 98.56),
    ("CC(C)C[C@H](NC(=O)OCc1ccccc1)C(=O)N[C@@H](CC(C)C)C(=O)N[C@@H](Cc1ccc(O)cc1)C(=O)CF [Calpain Inhibitor IV] (Cbz-Leu-Leu-Tyr-CH2F)", "%", 94.37),
    ("CCN(CC)CCCC(C)Nc1ccnc2cc(Cl)ccc12 (centres unmarked)", "%", 117.48),
]

Numbers sourced from patent US20240285552A1.
